Assay: CNS PK study in mice
Assay type: in vivo
Conditions: C57BL/6, mouse, CSF / unbound plasma; 30 mg/kg single oral, male mice, 0.25-2 h post dose; read-out: CSF:unbound plasma
measure: Kp

Ask | Which Kp value is on record for Nc1nonc1-c1nc2ccccc2n1Cc1ccncc1 ?
Reply | 0.8 to 1.2

---

Target: THIK-1 (Homo sapiens)
Construct: expressed in transfected cells
Sequence (Q9HB14 1-408): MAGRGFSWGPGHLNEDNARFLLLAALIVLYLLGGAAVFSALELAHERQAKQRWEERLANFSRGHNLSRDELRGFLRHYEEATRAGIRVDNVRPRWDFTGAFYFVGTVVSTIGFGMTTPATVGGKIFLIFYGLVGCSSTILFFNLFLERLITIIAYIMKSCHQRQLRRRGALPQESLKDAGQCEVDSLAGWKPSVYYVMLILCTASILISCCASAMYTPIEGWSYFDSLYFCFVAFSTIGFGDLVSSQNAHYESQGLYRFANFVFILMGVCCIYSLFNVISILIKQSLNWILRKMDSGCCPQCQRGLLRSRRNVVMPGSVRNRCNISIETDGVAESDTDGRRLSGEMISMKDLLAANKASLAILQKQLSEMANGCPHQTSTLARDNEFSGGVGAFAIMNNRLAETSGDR
Experiment: Thallium flux functional wash-off assay, HEK-hTHIK-1 cells
Type: cell-based
Conditions: compound removed, 60 min incubation in buffer before thallium; read-out: IC50 (60 min wash)
measure: pIC50
Please treat pIC50 as minus the base-10 logarithm of the molar concentration.

Ask | Can you look up pIC50 on THIK-1 (Homo sapiens) for Nc1nonc1-c1nc2ccccc2n1Cc1ccncc1 [C101248] ?
Reply | 7.02

---

Target: GSK3β (h) (Homo sapiens)
Sequence (P49841 whole entry): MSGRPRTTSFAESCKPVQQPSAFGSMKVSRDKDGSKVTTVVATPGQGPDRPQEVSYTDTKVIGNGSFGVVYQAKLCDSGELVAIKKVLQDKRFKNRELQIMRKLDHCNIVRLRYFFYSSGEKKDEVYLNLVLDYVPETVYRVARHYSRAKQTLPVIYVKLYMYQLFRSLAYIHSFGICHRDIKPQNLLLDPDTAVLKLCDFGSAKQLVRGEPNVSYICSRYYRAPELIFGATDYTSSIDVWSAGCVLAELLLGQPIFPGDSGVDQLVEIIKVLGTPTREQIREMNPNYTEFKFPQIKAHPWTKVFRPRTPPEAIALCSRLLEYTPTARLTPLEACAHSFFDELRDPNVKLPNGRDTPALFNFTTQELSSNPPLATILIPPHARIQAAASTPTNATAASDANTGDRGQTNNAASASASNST
measure: IC50

Ask | What does the record list as IC50 for Nc1nonc1-c1nc2ccccc2n1Cc1ccncc1 [C101248] ?
Reply | > 10 µM

---

Target: THIK-1 (Homo sapiens)
Construct: expressed in transfected cells
Assay: Q-Patch automated electrophysiology, HEK-hTHIK-1 cells
Format: cell-based
Details: HEK-hTHIK-1, step to +40 mV, normalised to TPA; read-out: IC50, inhibition of basal currents (Q-Patch)
measure: IC50 (nM)
Number in nM, nothing else.

Ask | State the recorded IC50 for this entry: Nc1nonc1-c1nc2ccccc2n1Cc1ccncc1
Reply | 147
